Here, each record is paired with measured relative viability data.
System: SK-LU-1
Experiment: relative viability (nuclei count vs DMSO), 5 days (fraction); higher = more cells survive
Conditions: first compound 0.01581 µM
Write the number on its own, no unit after it.

INSERT INTO assay_data (compound, tgt, quantitative_readout) VALUES
  ('COc1cc2nccc(Oc3ccc(NC(=O)Nc4cc(C)on4)c(Cl)c3)c2cc1OC [Tivozanib] + O=C(c1cc(Cc2n[nH]c(=O)c3ccccc23)ccc1F)N1CCN(C(=O)C2CC2)CC1 [Olaparib] (partner 8 µM)', 'SK-LU-1', 0.474),
  ('COc1cc2nccc(Oc3ccc(NC(=O)Nc4cc(C)on4)c(Cl)c3)c2cc1OC [Tivozanib] + Cc1nc(NC(=O)N2CCC[C@H]2C(N)=O)sc1-c1ccnc(C(C)(C)C(F)(F)F)c1 [Alpelisib] (partner 2 µM)', 'SK-LU-1', 1.01),
  ('COc1cc2nccc(Oc3ccc(NC(=O)Nc4cc(C)on4)c(Cl)c3)c2cc1OC [Tivozanib] + C[C@]1(O)C[C@@H](c2nc(-c3ccc4ccc(-c5ccccc5)nc4c3)c3c(N)nccn32)C1 [Linsitinib] (partner 1 µM)', 'SK-LU-1', 1.08),
  ('Nc1ccn([C@@H]2O[C@H](CO)[C@@H](O)[C@@H]2O)c(=O)n1 [Cytarabine] + C[C@@H](Oc1cc(-c2cnn(C3CCNCC3)c2)cnc1N)c1c(Cl)ccc(F)c1Cl [Crizotinib] (partner 1 µM)', 'SK-LU-1', 0.83),
  ('Nc1ccn([C@@H]2O[C@H](CO)[C@@H](O)[C@@H]2O)c(=O)n1 [Cytarabine] + Cc1nc(NC(=O)N2CCC[C@H]2C(N)=O)sc1-c1ccnc(C(C)(C)C(F)(F)F)c1 [Alpelisib] (partner 2 µM)', 'SK-LU-1', 0.826),
  ('COc1cc2nccc(Oc3ccc(NC(=O)Nc4cc(C)on4)c(Cl)c3)c2cc1OC [Tivozanib] + CS(=O)(=O)CCNCc1ccc(-c2ccc3ncnc(Nc4ccc(OCc5cccc(F)c5)c(Cl)c4)c3c2)o1 [Lapatinib] (partner 2 µM)', 'SK-LU-1', 0.809),
  ('COc1cc2nccc(Oc3ccc(NC(=O)Nc4cc(C)on4)c(Cl)c3)c2cc1OC [Tivozanib] + O=C(CCCCCCC(=O)Nc1ccccc1)NO [Vorinostat] (partner 1 µM)', 'SK-LU-1', 0.838),
  ('COc1cc2nccc(Oc3ccc(NC(=O)Nc4cc(C)on4)c(Cl)c3)c2cc1OC [Tivozanib] + CC(=O)Nc1cccc(-n2c(=O)n(C3CC3)c(=O)c3c(Nc4ccc(I)cc4F)n(C)c(=O)c(C)c32)c1 [Trametinib] (partner 0.02 µM)', 'SK-LU-1', 0.498);

Query block: Value lookup for relative viability; key = COc1cc2nccc(Oc3ccc(NC(=O)Nc4cc(C)on4)c(Cl)c3)c2cc1OC [Tivozanib] + CS(=O)(=O)N1CCN(Cc2cc3nc(-c4cccc5[nH]ncc45)nc(N4CCOCC4)c3s2)CC1 [Pictilisib] (partner 1 µM)
Result block: 0.465

Query block: Another compound: Nc1ccn([C@@H]2O[C@H](CO)[C@@H](O)[C@@H]2O)c(=O)n1 [Cytarabine] + CCNC(=O)c1noc(-c2cc(C(C)C)c(O)cc2O)c1-c1ccc(CN2CCOCC2)cc1 [Luminespib] (partner 0.01 µM)
Result block: 0.183

Query block: Another compound: Nc1ccn([C@@H]2O[C@H](CO)[C@@H](O)[C@@H]2O)c(=O)n1 [Cytarabine] + O=C(c1cc(Cc2n[nH]c(=O)c3ccccc23)ccc1F)N1CCN(C(=O)C2CC2)CC1 [Olaparib] (partner 8 µM)
Result block: 0.392

Query block: Another compound: Nc1ccn([C@@H]2O[C@H](CO)[C@@H](O)[C@@H]2O)c(=O)n1 [Cytarabine] + COc1cc2c(Oc3ccc(NC(=O)C4(C(=O)Nc5ccc(F)cc5)CC4)cc3F)ccnc2cc1OCCCN1CCOCC1 [Foretinib] (partner 0.25 µM)
Result block: 0.759

Values compiled from the supplement of paper PMC10307832.
